# Test system: 156681-154-R-J1-PDC complex spheroid viability;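 note: spheroids exposed to the agents for seven days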
# protocol notes: Anticancer human tumor 156681-154-R-J1-PDC patient-derived melanoma cell line growth inhibition [CLK]
# setup conditions: second compound 1 µM; first compound 0.1 µM; hits give low values
Returns: string. Value is rule met if measured viability, T/C is below 40%, and rule not met if it is greater than or equal to it.

// below: answered compounds
compound="CCN1CCN(Cc2ccc(Nc3ncc(F)c(-c4cc(F)c5nc(C)n(C(C)C)c5c4)n3)nc2)CC1 + CN1CCN(c2cc(C(=O)Nc3cc4cc(-c5cnn(C)c5)ccc4cn3)ccn2)CC1" measured_on="156681-154-R-J1-PDC complex spheroid viability" assigned_class="rule met"
compound="COC1C=CCC(C)C(C)S(=O)(=O)NC(=O)c2ccc3c(c2)N(CC2CCC21)CC1(CCCc2cc(Cl)ccc21)CO3 (stereo not given) + CNC(=O)c1ccc(Nc2nc(OC3CCCC3)c3c(-c4ccc5nc(C)oc5c4)c[nH]c3n2)c(OC)c1" measured_on="156681-154-R-J1-PDC complex spheroid viability" assigned_class="rule not met"
compound="O=c1[nH]cc(F)c(=O)[nH]1 + CN1CCN(c2cc(C(=O)Nc3cc4cc(-c5cnn(C)c5)ccc4cn3)ccn2)CC1" measured_on="156681-154-R-J1-PDC complex spheroid viability" assigned_class="rule met"
compound="CCN1CCN(Cc2ccc(Nc3ncc(F)c(-c4cc(F)c5nc(C)n(C(C)C)c5c4)n3)nc2)CC1 + CNC(=O)c1ccc(Nc2nc(OC3CCCC3)c3c(-c4ccc5nc(C)oc5c4)c[nH]c3n2)c(OC)c1" measured_on="156681-154-R-J1-PDC complex spheroid viability" assigned_class="rule not met"
compound="O=c1[nH]cc(F)c(=O)[nH]1 + CNC(=O)c1ccc(Nc2nc(OC3CCCC3)c3c(-c4ccc5nc(C)oc5c4)c[nH]c3n2)c(OC)c1" measured_on="156681-154-R-J1-PDC complex spheroid viability" assigned_class="rule not met"

Challenge: Given CC1(C)CCC(CN2CCN(c3ccc(C(=O)NS(=O)(=O)c4ccc(NCC5CCOCC5)c([N+](=O)[O-])c4)c(Oc4cnc5[nH]ccc5c4)c3)CC2)=C(c2ccc(Cl)cc2)C1 + CN1CCN(c2cc(C(=O)Nc3cc4cc(-c5cnn(C)c5)ccc4cn3)ccn2)CC1 , is recorded viability, T/C strictly lower than 40%?
Response given: rule met

Challenge: Please determine if Nc1ccccc1NC(=O)c1ccc(CNC(=O)OCc2cccnc2)cc1 + CNC(=O)c1ccc(Nc2nc(OC3CCCC3)c3c(-c4ccc5nc(C)oc5c4)c[nH]c3n2)c(OC)c1 is below 40% in terms of viability, T/C.
Response given: rule not met

Challenge: Would you kindly verify if viability, T/C of O=C(c1cc(Cc2n[nH]c(=O)c3ccccc23)ccc1F)N1CCN(C(=O)C2CC2)CC1 + CN1CCN(c2cc(C(=O)Nc3cc4cc(-c5cnn(C)c5)ccc4cn3)ccn2)CC1 is strictly less than 40%?
Response given: rule met

Challenge: Hi there! Is viability, T/C for CC(=O)O[C@H]1C(=O)[C@@]2(C)[C@H]([C@H](OC(=O)c3ccccc3)[C@]3(O)C[C@H](OC(=O)[C@H](O)[C@@H](NC(=O)c4ccccc4)c4ccccc4)C(C)=C1C3(C)C)[C@]1(OC(C)=O)CO[C@@H]1C[C@@H]2O + CN1CCN(c2cc(C(=O)Nc3cc4cc(-c5cnn(C)c5)ccc4cn3)ccn2)CC1 below 40%, do you know?
Response given: rule met

Challenge: Quick check: viability, T/C of Nc1ccccc1NC(=O)c1ccc(CNC(=O)OCc2cccnc2)cc1 + CN1CCN(c2cc(C(=O)Nc3cc4cc(-c5cnn(C)c5)ccc4cn3)ccn2)CC1 under 40%?
Response given: rule met
